Tested on: ES4 (Ewing's Sarcoma)
Experiment: Bliss excess, mean over the matrix (fraction); higher = more synergy;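 also: after 72 h of two-drug dosing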
// condition not met strictly below -0.02 in Bliss excess; condition met otherwise

Look over these answered cases.
compound	assigned.class
C=CCn1c(=O)c2cnc(Nc3ccc(N4CCN(C)CC4)cc3)nc2n1-c1cccc(C(C)(C)O)n1 [AZD1775] + O=C(c1cc(Cc2n[nH]c(=O)c3ccccc23)ccc1F)N1CCN(C(=O)C2CC2)CC1 [Olaparib] (first compound max 1 µM, partner max 10 µM)	condition met
COc1nnc2ccc(N3CCC(c4ccc(OCCN5CCN(C)C(=O)[C@H]5C)cc4)CC3)nn12 [AZD5153] + CCN(CCO)CCCOc1ccc2c(Nc3cc(CC(=O)Nc4cccc(F)c4)[nH]n3)ncnc2c1 [AZD2811] (first compound max 1 µM, 7x7, partner max 1 µM)	condition met
Cc1cc2ncnn2cc1Nc1ncc2c(n1)n(C1CCOCC1)c(=O)n2C [AZD7648] + CN(C)CCCOc1ccc(-c2ccc3ncc4c(c3c2)n(C2CCOCC2)c(=O)n4C)cn1 [AZD0156] (first compound max 10 µM, 7x7, partner max 1 µM)	condition met
Cn1cnc2c(F)c(Nc3ccc(Br)cc3Cl)c(C(=O)NOCCO)cc21 [Selumetinib] + CCN(CCO)CCCOc1ccc2c(Nc3cc(CC(=O)Nc4cccc(F)c4)[nH]n3)ncnc2c1 [AZD2811] (first compound max 10 µM, 7x7, partner max 1 µM)	condition not met
CC(=O)c1c(C)c2cnc(Nc3ccc(N4CCNCC4)cn3)nc2n(C2CCCC2)c1=O [Palbociclib] + CN(CC[C@H](CSC1=CC=CC=C1)NC2=C(C=C(C=C2)S(=O)(=O)NC(=O)C3=CC=C(C=C3)N4CCC(CC4)[C@H](C5=CC=CC=C5C6=CC=C(C=C6)Cl)O)S(=O)(=O)C(F)(F)F)CCO [AZD4320] (first compound max 10 µM, 7x7, partner max 1 µM)	condition not met
C[C@@H](c1ccc2nccn2c1)n1nnc2ncc(-c3cnn(C)c3)nc21 [Savolitinib] + CC1(C)CCC(CN2CCN(c3ccc(C(=O)NS(=O)(=O)c4ccc(NCC5CCOCC5)c([N+](=O)[O-])c4)c(Oc4cnc5[nH]ccc5c4)c3)CC2)=C(c2ccc(Cl)cc2)C1 [Venetoclax] (first compound max 1 µM, 7x7, partner max 1 µM)	condition not met

Turning now to a further record.
Quick check: does Cc1c2c(nn1C)CSCc1cc(n(C)n1)CSc1cc(c3ccccc3c1)OCCCc1c(C(=O)O)n(C)c3c-2c(Cl)ccc13 [AZD5991] + Cn1cnc2c(F)c(Nc3ccc(Br)cc3Cl)c(C(=O)NOCCO)cc21 [Selumetinib] (first compound max 1 µM, 7x7, partner max 3 µM) have Bliss excess greater than or equal to -0.02?
condition met

* * *

Tested on: NCI-H2085 (Non-Small Cell Lung Carcinoma)
Assay: Bliss excess, mean over the matrix (fraction); higher = more synergy
// NO strictly below -0.005 in Bliss excess; YES otherwise

Look over these answered cases.
compound	assigned.class
Cn1cnc2c(F)c(Nc3ccc(Br)cc3Cl)c(C(=O)NOCCO)cc21 [Selumetinib] + CC(C)n1c(=O)n(C)c2cnc3cc(F)c(-c4ccc(OCCCN5CCCCC5)nc4)cc3c21 [AZD1390] (first compound max 10 µM, 7x7, partner max 0.3 µM)	NO
Cc1c2c(nn1C)CSCc1cc(n(C)n1)CSc1cc(c3ccccc3c1)OCCCc1c(C(=O)O)n(C)c3c-2c(Cl)ccc13 [AZD5991] + C=CCn1c(=O)c2cnc(Nc3ccc(N4CCN(C)CC4)cc3)nc2n1-c1cccc(C(C)(C)O)n1 [AZD1775] (first compound max 1 µM, partner max 1 µM)	NO

Turning now to a further record.
Quick check: does Cc1c2c(nn1C)CSCc1cc(n(C)n1)CSc1cc(c3ccccc3c1)OCCCc1c(C(=O)O)n(C)c3c-2c(Cl)ccc13 [AZD5991] + CC(=O)O[C@H]1C(=O)[C@@]2(C)[C@H]([C@H](OC(=O)c3ccccc3)[C@]3(O)C[C@H](OC(=O)[C@H](O)[C@@H](NC(=O)c4ccccc4)c4ccccc4)C(C)=C1C3(C)C)[C@]1(OC(C)=O)CO[C@@H]1C[C@@H]2O [Paclitaxel] (first compound max 1 µM, 7x7, partner max 3 µM) have Bliss excess greater than or equal to -0.005?
YES

This collection of values is drawn from the supplement of paper PMC11061612.
